- Tested on: Canis familiaris
- experiment: Saluretic activity in the dog measured as concentration of Na+ in urinary excretion (2 animals/dose) at (dose 1.56 mg/Kg, perorally)
- Format: functional, Canis lupus familiaris, Urine
observable: Saluretic activity
Include the unit right after the number.

NS(=O)(=O)c1cc(S(=O)(=O)[O-])c(NCc2ccco2)cc1Cl.[Na+]
2.61 m equiv 6hr-1 kg-1
NCc1cccs1.NS(=O)(=O)c1cc(S(=O)(=O)O)c(NCc2cccs2)cc1Cl
2.33 m equiv 6hr-1 kg-1
NS(=O)(=O)c1cc(S(=O)(=O)[O-])c(NCCc2ccco2)cc1Oc1ccccc1.[K+]
0.89 m equiv 6hr-1 kg-1
NS(=O)(=O)c1cc(S(=O)(=O)[O-])c(NCc2ccco2)cc1Oc1ccccc1.[Na+]
4.89 m equiv 6hr-1 kg-1

Then there is this compound:
Input: Could you tell me which Saluretic activity is on file for NCc1ccccc1.NS(=O)(=O)c1cc(S(=O)(=O)O)c(NCc2ccccc2)cc1Cl ?
Output: 1.65 m equiv 6hr-1 kg-1

Value source: ChEMBL document CHEMBL1122273
